- system: recombinant CDK4/Cyclin D1 (Homo sapiens)
- Construct: purchased Life Technologies PV4204
- Sequence (P11802 whole entry, one chain of several): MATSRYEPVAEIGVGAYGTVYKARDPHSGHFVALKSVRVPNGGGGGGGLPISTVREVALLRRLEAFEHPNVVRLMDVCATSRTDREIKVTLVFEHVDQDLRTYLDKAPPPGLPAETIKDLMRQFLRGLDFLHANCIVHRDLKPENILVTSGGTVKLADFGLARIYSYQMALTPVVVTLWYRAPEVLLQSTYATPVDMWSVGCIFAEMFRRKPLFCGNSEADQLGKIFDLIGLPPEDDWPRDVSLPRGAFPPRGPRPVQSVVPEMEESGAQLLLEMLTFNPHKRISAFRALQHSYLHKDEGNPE
- method_description: Biochemical kinase inhibition test, CDK4/Cyclin D1 (32P-ATP, retinoblastoma protein substrate)
- condition_description: three-fold serial dilution from 10 μM; 10 μM ATP; read-out: CDK4/D1 (nM), enzyme inhibitory activity IC50
measured_parameter: IC50

Task item: Query IC50 on recombinant CDK4/Cyclin D1 (Homo sapiens) for `CCN1CCN(c2ccc(Nc3ncc4ccc5cnn(CC)c5c4n3)nc2)CC1`
Reply: 10 to 20 nM

Task item: Notebook entry, recombinant CDK4/Cyclin D1 (Homo sapiens) assay: IC50 of `CC(C)n1ncc2ccc3cnc(Nc4ccc(N5CCCCC5)cn4)nc3c21` = ?
Reply: 50 to 100 nM

Task item: Provide the documented IC50 with recombinant CDK4/Cyclin D1 (Homo sapiens) as the system for `CCN1CCN(c2ccc(Nc3ncc4cc(C(C)=O)c5cnn(C(C)C)c5c4n3)nc2)CC1`
Reply: 1 to 5 nM

Task item: Field: IC50 (recombinant CDK4/Cyclin D1 (Homo sapiens)). Entry: `Cc1nc(Nc2ncc3ccc4cnn(C(C)C)c4c3n2)ccc1N1CCNCC1`
Reply: 1 to 5 nM

Task item: Quick check: IC50 on recombinant CDK4/Cyclin D1 (Homo sapiens), item `CCN1CCN(c2cnc(Nc3ncc4ccc5cnn(C6CC6)c5c4n3)cc2C)CC1` ?
Reply: 10 to 20 nM

Task item: Request: IC50, test system recombinant CDK4/Cyclin D1 (Homo sapiens), entry `Cc1cc2cnc(Nc3ccc(N4CCNCC4)cn3)nc2c2c1cnn2C(C)C.Cl`
Reply: 10 to 20 nM

Task item: What value of IC50 on recombinant CDK4/Cyclin D1 (Homo sapiens) does `Cc1cc2cnc(Nc3ccc(N4CCOCC4)cn3)nc2c2c1cnn2C(C)C` have?
Reply: 10 to 20 nM

Task item: Provide value of IC50 for this record tested with recombinant CDK4/Cyclin D1 (Homo sapiens): `CCN1CCN(c2ccc(Nc3ncc4cc(Br)c5cnn(C(C)C)c5c4n3)nc2)CC1`
Reply: 10 to 20 nM

Task item: Please tell me: IC50 of `c1cc(Nc2ncc3ccc4cnn(C5CC5)c4c3n2)ncc1N1CCOCC1` , system recombinant CDK4/Cyclin D1 (Homo sapiens)?
Reply: 10 to 20 nM

----------
- system: CDK6/cyclin D1 (Homo sapiens, UniProt Q00534)
- Sequence (Q00534 whole entry, species assumed): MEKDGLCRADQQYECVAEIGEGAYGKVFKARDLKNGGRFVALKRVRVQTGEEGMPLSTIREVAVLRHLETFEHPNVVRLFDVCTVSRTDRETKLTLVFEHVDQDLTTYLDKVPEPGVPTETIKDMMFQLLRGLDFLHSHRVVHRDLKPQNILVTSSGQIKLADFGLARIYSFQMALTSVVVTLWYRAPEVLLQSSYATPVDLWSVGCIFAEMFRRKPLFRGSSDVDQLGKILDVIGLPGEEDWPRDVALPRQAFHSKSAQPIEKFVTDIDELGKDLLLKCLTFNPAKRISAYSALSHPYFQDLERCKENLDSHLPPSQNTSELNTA
- Sequence (P24385 whole entry partner, species assumed): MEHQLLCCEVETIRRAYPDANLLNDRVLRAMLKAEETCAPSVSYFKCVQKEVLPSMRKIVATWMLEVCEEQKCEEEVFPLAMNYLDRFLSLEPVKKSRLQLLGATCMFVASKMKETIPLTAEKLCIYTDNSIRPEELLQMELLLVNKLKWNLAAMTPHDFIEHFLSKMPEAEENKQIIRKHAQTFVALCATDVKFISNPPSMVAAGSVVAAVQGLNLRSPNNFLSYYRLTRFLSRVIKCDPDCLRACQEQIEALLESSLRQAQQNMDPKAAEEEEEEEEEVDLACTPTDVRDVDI
- method_description: Biochemical kinase inhibition test, CDK6/cyclin D1 (similar method)
- condition_description: CDK6/cyclin D1 versus CDK4/cyclin D1
measured_parameter: selectivity for CDK6/cyclin D1 relative to CDK4/cyclin D1 (enzyme inhibitory activity)

Cc1cc2cnc(Nc3cc(F)c(N4CCNCC4)cn3)nc2c2c1cnn2C(C)C.Cl : about 2 times
Cc1cc(Nc2ncc3ccc4cnn(C5CC5)c4c3n2)ncc1N1CCN(C)CC1 : about 2 times
Cl.Fc1cc(Nc2ncc3ccc4cnn(C5CC5)c4c3n2)ncc1N1CCNCC1 : about 2 times
Cc1cc2cnc(Nc3ccc(N4CCNCC4)cn3)nc2c2c1cnn2C(C)C.Cl : about 3 times
CC(C)n1ncc2c(C#N)cc3cnc(Nc4ccc(N5CCNCC5)cn4)nc3c21.Cl : about 3 times

Task item: Requested read-out: selectivity for CDK6/cyclin D1 relative to CDK4/cyclin D1 (enzyme inhibitory activity). Entry: `CCN1CCN(c2ccc(Nc3ncc4ccc5cnn(C6CC6)c5c4n3)nc2)CC1`
Reply: about 3 times

Task item: Please look up its selectivity for CDK6/cyclin D1 relative to CDK4/cyclin D1 (enzyme inhibitory activity): `CCn1ncc2ccc3cnc(Nc4cc(C)c(N5CCN(C)CC5)cn4)nc3c21`
Reply: about 2 times

Task item: I have this compound here, `CC(C)n1ncc2c(C#N)cc3cnc(Nc4ccc(N5CCOCC5)cn4)nc3c21` , and I need its recorded selectivity for CDK6/cyclin D1 relative to CDK4/cyclin D1 (enzyme inhibitory activity).
Reply: about 3 times

Reference for the values: patent US11993604B2
